Each entry below carries its recorded growth AUC.
Tested on: Fusobacterium nucleatum subsp. animalis
Assay Procedure: growth AUC relative to DMSO control (median of replicates) (fraction); higher = more growth (less inhibition), active = hit call of the paper
Measurement Context: 20 µM; 24 h
Reply with the value as a number alone.

>  <Compound>
c1ccc(CNc2ncnc3nc[nH]c23)cc1

>  <Subject Of Test>
Fusobacterium nucleatum subsp. animalis

>  <Readout>
growth AUC

>  <Endpoint Result>
0.943

$$$$
>  <Compound>
CCCCC(CC)COC(=O)COc1ccc(Cl)cc1C (stereo unspecified)

>  <Subject Of Test>
Fusobacterium nucleatum subsp. animalis

>  <Readout>
growth AUC

>  <Endpoint Result>
0.989

$$$$
>  <Compound>
O=[N+]([O-])c1ccc(Oc2c(Cl)cc(Cl)cc2Cl)cc1

>  <Subject Of Test>
Fusobacterium nucleatum subsp. animalis

>  <Readout>
growth AUC

>  <Endpoint Result>
1.05

$$$$
>  <Compound>
O=C(NCc1ncc(C(F)(F)F)cc1Cl)c1c(Cl)cccc1Cl

>  <Subject Of Test>
Fusobacterium nucleatum subsp. animalis

>  <Readout>
growth AUC

>  <Endpoint Result>
1.01

$$$$
>  <Compound>
c1ccc(Nc2ccccc2)cc1

>  <Subject Of Test>
Fusobacterium nucleatum subsp. animalis

>  <Readout>
growth AUC

>  <Endpoint Result>
0.988

$$$$

// switching to the query compound
Q: Need growth AUC, item O=C(O)C1(C(=O)Nc2ccc(Cl)cc2Cl)CC1
Ans: 1.03

###

Test system: Bacteroides clarus
Assay Procedure: growth AUC relative to DMSO control (median of replicates) (fraction); higher = more growth (less inhibition), active = hit call of the paper
Measurement Context: 20 µM; 24 h
Each entry below carries its recorded growth AUC.
Reply with the value as a number alone.

Example molecules with recorded growth AUC:
>  <Molecule>
CCCN(CCOc1c(Cl)cc(Cl)cc1Cl)C(N)=O

>  <Readout>
growth AUC

>  <Endpoint Result>
0.959

$$$$
>  <Molecule>
CCCCCCCCSCCO

>  <Readout>
growth AUC

>  <Endpoint Result>
0.967

$$$$
>  <Molecule>
O=C(O)Cc1c(Cl)ccc(Cl)c1Cl

>  <Readout>
growth AUC

>  <Endpoint Result>
0.99

$$$$
>  <Molecule>
Cc1cc(C)cc(OCC(C)Nc2nc(N)nc(C(C)(C)F)n2)c1 (stereo unspecified)

>  <Readout>
growth AUC

>  <Endpoint Result>
0.889

$$$$
>  <Molecule>
COc1ccc(Oc2ccc(NC(=O)N(C)C)cc2)cc1

>  <Readout>
growth AUC

>  <Endpoint Result>
0.958

$$$$

Q: Need growth AUC, item C=CCOC(Cn1ccnc1)c1ccc(Cl)cc1Cl (stereo unspecified)
Ans: 0.96

###

Tested on: Coprococcus comes
Assay Procedure: growth AUC relative to DMSO control (median of replicates) (fraction); higher = more growth (less inhibition), active = hit call of the paper
Measurement Context: 20 µM; 24 h
We use 1 as the dividing line for growth AUC: on or above the line is true (1), below is false (0).

>  <Compound>
Oc1ccccc1

>  <Label Class>
true (1)

$$$$

Q: Please indicate if the recorded growth AUC for CCC/C(=N\OCC)C1=C(O)CC(C2CCCSC2)CC1=O (stereo unspecified) meets or exceeds 1.
Ans: true (1)

Q: Please indicate if the recorded growth AUC for COCCCNc1nc(NC(C)C)nc(SC)n1 meets or exceeds 1.
Ans: false (0)

Q: Please indicate if the recorded growth AUC for ClC=C(c1ccc(Cl)cc1)c1ccc(Cl)cc1 meets or exceeds 1.
Ans: false (0)

Q: Please indicate if the recorded growth AUC for COc1cc(OC)nc(NC(=O)NS(=O)(=O)Nc2ccccc2C(=O)C2CC2)n1 meets or exceeds 1.
Ans: false (0)
